Just for reference, ChEMBL document CHEMBL3039007 is where these values come from.

# Tested Target: UniProtKB Q9Y6L6
# Test Settings: chinese hamster, cho, 10 µM
Residues, ends and D or L forms follow the SMILES beside them.
# cutoff 70% applies to residual activity; >= gives Yes, < gives No

// inclusive: residual activity at least 70%? input: CCCCCCCCCCCCCCCC[n+]1ccccc1.O.[Cl-]
Yes

// inclusive: residual activity at least 70%? input: C=C1[C@@H]([C@@]2(C)[C@@H](OC(C)=O)CC(=O)O[C@](C)(COC(C)=O)[C@@H]2C(=O)OC)[C@@H](OC=O)[C@H](OC(=O)[C@H](O)[C@H](C)CC)[C@@]2(C)[C@H](c3ccoc3)CC(=O)[C@]12O [PRIEURIANIN]
No

// inclusive: residual activity at least 70%? input: C=C1C2=CC(=O)O[C@@H](c3ccoc3)[C@]2(C)CCC1[C@@]1(C)C=CC(=O)C(C)(C)[C@@H]1CC(=O)OC (some centres not stated) [DEOXYANDIROBIN]
No

// inclusive: residual activity at least 70%? input: CC(=O)O[C@H]1C[C@@H](OC(C)=O)C(C)(C)[C@@H]2C[C@@H](OC(C)=O)[C@]3(C)[C@H](CC[C@]4(C)[C@H](c5ccoc5)C(=O)[C@H]5O[C@@]534)[C@@]12C
No

// inclusive: residual activity at least 70%? input: CCCCCCCC/C=C/CCCCCCCCOP(=O)([O-])OCC[N+](C)(C)C [ELAIDYLPHOSPHOCHOLINE]
No

// inclusive: residual activity at least 70%? input: NCCCC[C@H](N)C(=O)N[C@@H](Cc1ccccc1)C(=O)N[C@@H](Cc1ccc(O)cc1)C(=O)O [LYSYLPHENYLALANYLTYROSINE] (H-Lys-Phe-Tyr-OH)
Yes

// inclusive: residual activity at least 70%? input: CC(C)(Sc1cc(C(C)(C)C)c(O)c(C(C)(C)C)c1)Sc1cc(C(C)(C)C)c(O)c(C(C)(C)C)c1 [PROBUCOL]
Yes

* * *

# Tested Target: Solute carrier organic anion transporter family member 1B3 (Homo sapiens)
# Sequence (Q9NPD5 whole entry): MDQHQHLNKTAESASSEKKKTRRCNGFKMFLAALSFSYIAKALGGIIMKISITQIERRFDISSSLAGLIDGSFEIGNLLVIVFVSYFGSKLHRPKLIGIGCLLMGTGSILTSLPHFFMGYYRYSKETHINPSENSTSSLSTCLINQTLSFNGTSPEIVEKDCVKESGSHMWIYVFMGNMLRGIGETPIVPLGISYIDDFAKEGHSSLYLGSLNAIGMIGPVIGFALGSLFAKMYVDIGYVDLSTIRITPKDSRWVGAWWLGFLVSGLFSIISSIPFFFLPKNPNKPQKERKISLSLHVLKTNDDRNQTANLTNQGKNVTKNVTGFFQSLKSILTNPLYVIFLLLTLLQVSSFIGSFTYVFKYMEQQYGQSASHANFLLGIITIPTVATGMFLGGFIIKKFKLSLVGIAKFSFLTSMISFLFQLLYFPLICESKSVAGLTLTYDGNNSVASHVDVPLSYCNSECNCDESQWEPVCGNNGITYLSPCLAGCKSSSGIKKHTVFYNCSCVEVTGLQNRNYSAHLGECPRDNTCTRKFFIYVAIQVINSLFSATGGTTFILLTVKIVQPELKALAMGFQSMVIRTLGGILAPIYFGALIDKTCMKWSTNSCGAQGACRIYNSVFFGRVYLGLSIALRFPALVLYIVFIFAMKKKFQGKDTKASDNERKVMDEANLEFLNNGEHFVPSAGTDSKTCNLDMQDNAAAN
# Test Settings: chinese hamster, cho, 10 µM
Decision: residual activity beneath 90% gives satisfied; residual activity meeting or exceeding 90% gives not satisfied.

Would you kindly verify if residual activity of Oc1c(Cl)cc(Cl)c(Cl)c1Cc1c(O)c(Cl)cc(Cl)c1Cl [HEXACHLOROPHENE] is strictly less than 90%?
satisfied

Would you kindly verify if residual activity of O=C1c2ccc(O)c(O)c2C(=O)c2c(O)ccc(O)c21 [QUINALIZARIN] is strictly less than 90%?
satisfied

Would you kindly verify if residual activity of C=C[C@@](C)(O)CCC1C(=C)CCC2[C@@](C)(CO)CCC[C@]12C (stereo partly drawn) [EPI(13)TORULOSOL] is strictly less than 90%?
not satisfied

Would you kindly verify if residual activity of C=C1CC[C@H](O)C/C1=C/C=C1\CCC[C@]2(C)[C@@H]([C@H](C)/C=C/[C@H](C)C(C)C)CC[C@@H]12 [ERGOCALCIFEROL] is strictly less than 90%?
satisfied

Would you kindly verify if residual activity of CCCOc1ccccc1-c1nc2nn[nH]c2c(=O)[nH]1 [ZAPRINAST] is strictly less than 90%?
satisfied

Would you kindly verify if residual activity of COC(=O)C[C@H]1C(C)(C)C(=O)[C@@H]2CC3=C4CC(=O)O[C@@H](c5ccoc5)[C@]4(C)CC[C@@H]3[C@@]1(C)C2=O [MEXICANOLIDE] is strictly less than 90%?
not satisfied

Would you kindly verify if residual activity of C=C(C)C1Cc2c(ccc(C(=O)O)c2O)O1 (stereo unspecified) [TUBAIC ACID] is strictly less than 90%?
satisfied

Would you kindly verify if residual activity of CC(NCCc1ccc(O)cc1)C(O)c1ccc(O)cc1.Cl (stereo unspecified) [RITODRINE HYDROCHLORIDE] is strictly less than 90%?
not satisfied

Would you kindly verify if residual activity of CCCCOc1cc(C(=O)NCCN(CC)CC)c2ccccc2n1.Cl [DIBUCAINE HYDROCHLORIDE] is strictly less than 90%?
not satisfied

Would you kindly verify if residual activity of CC(=O)OCC(=O)[C@@]12OC3(CCCC3)O[C@@H]1C[C@H]1[C@@H]3CCC4=CC(=O)C=C[C@]4(C)[C@@]3(F)[C@@H](O)C[C@@]12C [AMCINONIDE] is strictly less than 90%?
satisfied

Would you kindly verify if residual activity of CC1=CC(=O)c2ccccc2C1=O [MENADIONE] is strictly less than 90%?
not satisfied

Would you kindly verify if residual activity of CCCCCC1C(=O)CCC1CC(=O)O (stereo unspecified) [DIHYDROJASMONIC ACID] is strictly less than 90%?
not satisfied

Would you kindly verify if residual activity of C[C@@H]1C[C@H]2[C@@H]3C[C@H](F)C4=CC(=O)C=C[C@]4(C)[C@@]3(F)[C@@H](O)C[C@]2(C)[C@@]1(O)C(=O)CO [FLUMETHASONE] is strictly less than 90%?
not satisfied

Would you kindly verify if residual activity of Nc1ccccc1C(=O)CC(N)C(=O)O (stereo unspecified) [KYNURENINE] is strictly less than 90%?
satisfied

Would you kindly verify if residual activity of CC1(C)O[C@@H]2C[C@H]3[C@@H]4CCC5=CC(=O)C=C[C@]5(C)[C@@]4(F)[C@@H](O)C[C@]3(C)[C@]2(C(=O)CO)O1 [TRIAMCINOLONE ACETONIDE] is strictly less than 90%?
not satisfied

Would you kindly verify if residual activity of CC(=O)O[C@H]1CC[C@]2(C)C(C[C@H](OC(C)=O)[C@]3(C)C4=CC(=O)OC(c5ccoc5)[C@@]4(C)CCC23)C1(C)C (stereo partly specified) is strictly less than 90%?
satisfied

Would you kindly verify if residual activity of CCOC(N)=O is strictly less than 90%?
not satisfied

Would you kindly verify if residual activity of C[C@](N)(Cc1ccc(O)c(O)c1)C(=O)O [METHYLDOPA] is strictly less than 90%?
not satisfied

Would you kindly verify if residual activity of CC(C)(Oc1ccc(Cl)cc1)C(=O)O [CLOFIBRIC ACID] is strictly less than 90%?
not satisfied

Would you kindly verify if residual activity of NCCC(=O)N[C@@H](Cc1cnc[nH]1)C(=O)O [CARNOSINE] is strictly less than 90%?
not satisfied

Would you kindly verify if residual activity of CCCC(C)(COC(N)=O)COC(=O)NC(C)C (stereo unspecified) [CARISOPRODOL] is strictly less than 90%?
not satisfied

Would you kindly verify if residual activity of CCCCCCCC/C=C/CCCCCCCCOP(=O)([O-])OCC[N+](C)(C)C [ELAIDYLPHOSPHOCHOLINE] is strictly less than 90%?
satisfied

Would you kindly verify if residual activity of C=C1C([C@]2(C)C(CC(=O)OC)[C@@](C)(COC(C)=O)OC(=O)C[C@H]2OC(C)=O)[C@@H](OC=O)[C@@H](OC(=O)C(O)C(C)CC)[C@@]2(C)[C@H](c3ccoc3)CC(=O)C12O (stereo partly specified) is strictly less than 90%?
satisfied

Would you kindly verify if residual activity of O=C(/C=C/c1ccccc1)c1ccc(O)cc1 [4'-HYDROXYCHALCONE] is strictly less than 90%?
not satisfied

Would you kindly verify if residual activity of CCN1CCCC1CNC(=O)c1cc(S(N)(=O)=O)ccc1OC (stereo unspecified) [SULPIRIDE] is strictly less than 90%?
not satisfied

Would you kindly verify if residual activity of Nc1ccc(S(=O)(=O)Nc2nccs2)cc1 [SULFATHIAZOLE] is strictly less than 90%?
satisfied

Would you kindly verify if residual activity of COP(=O)(OC)OC(Br)C(Cl)(Cl)Br (stereo unspecified) [NALED] is strictly less than 90%?
not satisfied

* * *

# Tested Target: Solute carrier organic anion transporter family member 1B1 (Homo sapiens, UniProt Q9Y6L6)
# Sequence (Q9Y6L6 whole entry): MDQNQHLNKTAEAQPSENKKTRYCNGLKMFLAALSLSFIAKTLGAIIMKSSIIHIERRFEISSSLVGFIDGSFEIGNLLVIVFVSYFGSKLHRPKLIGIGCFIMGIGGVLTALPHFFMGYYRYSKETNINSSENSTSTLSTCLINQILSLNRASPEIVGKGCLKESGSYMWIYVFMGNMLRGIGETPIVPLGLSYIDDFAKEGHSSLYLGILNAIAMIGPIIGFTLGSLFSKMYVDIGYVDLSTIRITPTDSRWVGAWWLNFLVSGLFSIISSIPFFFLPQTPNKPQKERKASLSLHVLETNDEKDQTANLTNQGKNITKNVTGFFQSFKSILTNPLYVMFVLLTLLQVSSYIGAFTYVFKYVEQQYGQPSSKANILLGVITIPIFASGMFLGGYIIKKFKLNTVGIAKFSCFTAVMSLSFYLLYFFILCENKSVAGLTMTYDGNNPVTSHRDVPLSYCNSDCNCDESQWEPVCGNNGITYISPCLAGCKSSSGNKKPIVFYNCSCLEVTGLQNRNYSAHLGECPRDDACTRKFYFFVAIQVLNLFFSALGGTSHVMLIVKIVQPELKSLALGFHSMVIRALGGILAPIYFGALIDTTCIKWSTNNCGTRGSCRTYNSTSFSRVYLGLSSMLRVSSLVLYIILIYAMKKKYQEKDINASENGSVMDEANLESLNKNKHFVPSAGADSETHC
# Test Settings: chinese hamster, cho, 10 µM
Readout: residual activity (%)
Return type: number; implicit unit %.

Recorded residual activity of NC[C@H](O)c1ccc(O)c(O)c1 [NOREPINEPHRINE] , please.
112.9

Recorded residual activity of CC(C)c1c(O)ccc2c1CCC1[C@@](C)(C(=O)O)CCC[C@]21C (some centres not stated) , please.
61.16

Recorded residual activity of CC(=O)Oc1cc(OC(C)=O)c2c(c1)O[C@H](c1ccc(OC(C)=O)c(OC(C)=O)c1)[C@H](OC(C)=O)C2 [EPICATECHIN PENTAACETATE] , please.
74.79

Recorded residual activity of C/C=C(/C(=C/C)c1ccc(O)cc1)c1ccc(O)cc1 , please.
48.7

Recorded residual activity of C[C@H]1C[C@@H]2[C@H]([C@@H](O)C[C@@]3(C)[C@H]2CC[C@]3(O)C(=O)CO)[C@@]2(C)C=CC(=O)C=C12 , please.
79.56

Recorded residual activity of COC(=O)C[C@H]1C(C)(C)C(=O)[C@H]2CC3=C4CC(OC)O[C@@H](c5ccoc5)[C@@]4(C)CCC3[C@]1(C)C2=O (some centres not stated) [16-DEOXOMEXICANOLIDE 16-METHYL ETHER] , please.
53.47

Recorded residual activity of CC(C)Nc1nc(Cl)nc(NC(C)C)n1 , please.
110.4

Recorded residual activity of CC(=O)O[C@@H]1C[C@H]2C(C)(C)CCC(=O)[C@]2(C)[C@H]2CC[C@@]3(C)[C@H](c4ccoc4)OC(=O)[C@H]4O[C@]43[C@@]21C , please.
67

Recorded residual activity of Cc1ccccc1C(OCCN(C)C)c1ccccc1.O=C(O)CC(O)(CC(=O)O)C(=O)O (configuration not stated) [ORPHENADRINE CITRATE] , please.
87.55

Recorded residual activity of Cc1cc(O)c2c(c1)C(=O)c1cc(O)cc(O)c1C2=O , please.
135

Recorded residual activity of Cc1ccccc1OCC(O)CO (configuration not stated) , please.
101

Recorded residual activity of CN(C)CCCO[C@@H]1[C@H]2OC(C)(C)O[C@H]2O[C@@H]1[C@H](O)CO , please.
91.07

Recorded residual activity of COC(=O)C(O)c1ccccc1 (configuration not stated) , please.
97.92

Recorded residual activity of COc1cc2c(cc1O)[C@@H](Cc1ccc(O)cc1)[N+](C)(C)CC2.[I-] [MAGNOCURARINE IODIDE] , please.
91.83

Recorded residual activity of COc1ccc([C@H]2Oc3c(I)c(OC)cc(OC)c3C[C@@H]2O)cc1OC , please.
194.8

Recorded residual activity of CN(C)CC/C=C1/c2ccccc2Sc2ccc(Cl)cc21.Cl [CHLORPROTHIXENE HYDROCHLORIDE] , please.
85.65

Recorded residual activity of Cn1cnc([N+](=O)[O-])c1Sc1ncnc2nc[nH]c12 , please.
128.4

Recorded residual activity of CC[C@H]1[C@@H]2C[C@H]3[C@@H]4N(C)c5ccccc5[C@]45C[C@@H]([C@@H]2[C@H]5O)N3[C@@H]1O , please.
34.58

Recorded residual activity of COc1ccc2c(c1)OC/C(=C\c1ccc(OC)c(O)c1)C2=O , please.
166.6

Recorded residual activity of O=C([O-])c1cc(=O)c2c(OCC(O)COc3cccc4oc(C(=O)[O-])cc(=O)c34)cccc2o1.[Na+].[Na+] [CROMOLYN SODIUM] , please.
101.2

Recorded residual activity of CC(C)(Oc1ccc(CCNC(=O)c2ccc(Cl)cc2)cc1)C(=O)O [BEZAFIBRATE] , please.
72.82

Recorded residual activity of O=C(O)COc1ccc(Cl)cc1Cl , please.
111.6
